Reference for the values: ChEMBL document CHEMBL3612063

Measured pIC50 accompanies every entry in the list below.
- targetEntity: UniProt Q9YQ12
- Sequence (Q9YQ12 whole entry): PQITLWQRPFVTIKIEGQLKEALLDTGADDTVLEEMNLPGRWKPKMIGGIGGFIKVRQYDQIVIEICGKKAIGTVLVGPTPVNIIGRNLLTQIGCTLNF
- protocolDescription: Inhibition of recombinant HIV1 protease using FRET substrate peptide by FRET assay
pIC50: −log10 of the molar value. Peptide text beside a SMILES is read from it. * marks the point of attachment. Cbz = O=C(OCc1ccccc1)*

# compound, targetEntity, pIC50
measured = [
    ("COC(=O)[C@H](CC(C)C)NC(=O)[C@H](Cc1ccccc1)NC(=O)[C@H](CO)NC(=O)OCc1ccccc1 (Cbz-Ser-Phe-Leu-OMe)", "UniProt Q9YQ12", 4.21),
    ("COC(=O)[C@H](Cc1ccc(O)cc1)NC(=O)[C@H](CC(C)C)NC(=O)[C@H](CO)NC(=O)OCc1ccccc1 (Cbz-Ser-Leu-Tyr-OMe)", "UniProt Q9YQ12", 3.79),
]
